target: GID1c (Arabidopsis thaliana, UniProt Q940G6)
Sequence (Q940G6 2-344): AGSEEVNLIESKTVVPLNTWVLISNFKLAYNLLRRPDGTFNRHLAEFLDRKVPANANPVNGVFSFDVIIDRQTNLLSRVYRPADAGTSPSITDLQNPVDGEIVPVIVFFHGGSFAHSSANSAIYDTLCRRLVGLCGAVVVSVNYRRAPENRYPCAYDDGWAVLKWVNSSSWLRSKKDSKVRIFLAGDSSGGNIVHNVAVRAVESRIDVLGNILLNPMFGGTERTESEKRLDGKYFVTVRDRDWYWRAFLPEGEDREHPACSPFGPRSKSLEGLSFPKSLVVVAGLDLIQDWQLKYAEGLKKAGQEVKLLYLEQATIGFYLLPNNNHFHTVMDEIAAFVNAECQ
pKd: −log10 of the molar value.

smi: C[C@@]12CCC[C@@](C)(C(=O)O)[C@H]1[C@H](C(=O)O)[C@@]13C[C@@H](CC[C@@H]21)[C@](C)(O)C3
pKd: 5.84
